experiment: Solubility in ultrapure water (visual observation); type: physicochemical; conditions: thermodynamic from solid, ultrasound 5 min
property measured: solubility at 5 min

Prompt: If you can, please state the reported solubility at 5 min value of `COc1ccc(CNc2nc(N3CCC4(CC4)C3)ncc2C(=O)N[C@H]2CC[C@H](OP(=O)([O-])[O-])CC2)cc1Cl.[Na+].[Na+]` .
Response: ≥ 200 mg/mL

###

experiment: Solubility of Compound 1 in buffer solutions of different pH (visual observation); type: physicochemical; conditions: aqueous buffer, thermodynamic from solid; buffer solution pH 7; 2 mg in 40 μL
property measured: solubility at 5 min

Prompt: Which solubility at 5 min reading was recorded for the compound COc1ccc(CNc2nc(N3CC4CC4C3)ncc2C(=O)N[C@H]2CC[C@H](OP(=O)([O-])[O-])CC2)cc1Cl.[Na+].[Na+] (stereo partly shown) [Compound 1] ?
Response: ≥ 50 mg/mL
